- System: Mycobacterium tuberculosis
- TEST_DESCRIPTION: Cornell M. t heat shock assay; note: in the data most compounds retested in dose-response had high values
- Format: functional, organism-based
- Set-up: dose or concentration left out as unconfirmed
The whole screen tested about 69,000 compounds, of which about 950 (1.4%) showed an effect of 50% or more. The list comes from a sample in which strong results are over-represented; it also holds close analogues and randomly drawn compounds.
// NB: equality with 20% counts as Criterion not met; only Percent Effect strictly below is Criterion met

Example results:
Cl.Cl.Clc1cccc(C[C@@H]2NCCC[C@@H]2Nc2cccc(Cl)c2)c1 : Criterion not met
Cc1ccc(-c2nc(CNCCn3cccn3)cs2)o1 : Criterion not met
Clc1cccc(CNC2CCN(CCc3ccncc3)CC2)c1 : Criterion met
Cc1cnn(CCNCc2csc(-c3ncccn3)n2)c1 : Criterion met
Cc1cnn(CCNCc2csc(-c3ccco3)n2)c1 : Criterion not met
O=C(Cc1cccc(Cl)c1)N[C@@H]1CCNC[C@H]1O : Criterion met

Given the entry Cl.NCC1CCCCN1C(=O)Cc1cccc(Cl)c1 (configuration not stated) , would its reported Percent Effect be below 20%?
Criterion met

Given the entry `Cc1cc(C(=O)N2CC[C@]3(C[C@@H](OCc4ccccn4)CO3)C2)c(C)o1.O=C(O)C(F)(F)F` , would its reported Percent Effect be below 20%?
Criterion not met

Given the entry `Cc1cnn(CCNCc2csc(-c3ccc(C)o3)n2)c1` , would its reported Percent Effect be below 20%?
Criterion not met

Given the entry Cc1cnn(CC(C)NCc2csc(-c3ccco3)n2)c1 (configuration not stated) , would its reported Percent Effect be below 20%?
Criterion not met

Given the entry `Cc1cnc(Nc2nccnc2C2CCN(C)CC2)s1` , would its reported Percent Effect be below 20%?
Criterion met
